Listed here: items and their measured pKi.
- experimental_system: M5 (Homo sapiens (Human), UniProt P08912)
- Sequence (P08912 whole entry): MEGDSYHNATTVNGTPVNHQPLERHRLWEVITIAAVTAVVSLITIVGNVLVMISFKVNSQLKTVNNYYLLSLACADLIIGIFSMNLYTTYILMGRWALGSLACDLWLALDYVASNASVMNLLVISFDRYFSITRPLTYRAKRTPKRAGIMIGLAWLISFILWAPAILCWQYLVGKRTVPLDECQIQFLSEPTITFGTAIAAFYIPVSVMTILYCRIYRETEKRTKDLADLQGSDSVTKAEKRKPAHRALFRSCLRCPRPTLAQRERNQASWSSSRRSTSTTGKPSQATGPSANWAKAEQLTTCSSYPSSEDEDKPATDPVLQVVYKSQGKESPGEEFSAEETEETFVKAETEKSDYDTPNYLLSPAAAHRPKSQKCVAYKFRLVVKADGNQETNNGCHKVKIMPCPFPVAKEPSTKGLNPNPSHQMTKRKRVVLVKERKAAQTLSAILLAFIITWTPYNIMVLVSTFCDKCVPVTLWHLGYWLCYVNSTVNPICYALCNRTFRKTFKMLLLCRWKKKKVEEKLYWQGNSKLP
- run_description: PDSP primary binding assay and secondary assay
- applied_conditions: secondary or functional assay
pKi: −log10 of the molar value.

compound | pKi
O=C(O)c1cccnc1Nc1c(Cl)ccc(OCc2ccccc2)c1Cl | < 5.00
O=C(O)c1ccccc1Nc1c(Cl)ccc(OCc2ccccc2)c1Cl [AK3-99B] | < 5.00

* * *

- experimental_system: CLC-2 (Homo sapiens (Human))
- run_description: IonWorks Barracuda automated patch-clamp electrophysiology, human CLC-2 cell line
- Type: cell-based
- applied_conditions: Table 2 / FIG. 8; 16 concentrations, n=4-8, −120 mV; read-out: IC50 (CLC-2)
pIC50: −log10 of the molar value.

item_smiles | experimental_system | pIC50
O=C(O)c1cccnc1Nc1c(Cl)ccc(OCc2ccccc2)c1Cl | CLC-2 (Homo sapiens (Human)) | 7.77

* * *

- experimental_system: mGluR6 (Homo sapiens (Human), UniProt O15303)
- Sequence (O15303 25-877): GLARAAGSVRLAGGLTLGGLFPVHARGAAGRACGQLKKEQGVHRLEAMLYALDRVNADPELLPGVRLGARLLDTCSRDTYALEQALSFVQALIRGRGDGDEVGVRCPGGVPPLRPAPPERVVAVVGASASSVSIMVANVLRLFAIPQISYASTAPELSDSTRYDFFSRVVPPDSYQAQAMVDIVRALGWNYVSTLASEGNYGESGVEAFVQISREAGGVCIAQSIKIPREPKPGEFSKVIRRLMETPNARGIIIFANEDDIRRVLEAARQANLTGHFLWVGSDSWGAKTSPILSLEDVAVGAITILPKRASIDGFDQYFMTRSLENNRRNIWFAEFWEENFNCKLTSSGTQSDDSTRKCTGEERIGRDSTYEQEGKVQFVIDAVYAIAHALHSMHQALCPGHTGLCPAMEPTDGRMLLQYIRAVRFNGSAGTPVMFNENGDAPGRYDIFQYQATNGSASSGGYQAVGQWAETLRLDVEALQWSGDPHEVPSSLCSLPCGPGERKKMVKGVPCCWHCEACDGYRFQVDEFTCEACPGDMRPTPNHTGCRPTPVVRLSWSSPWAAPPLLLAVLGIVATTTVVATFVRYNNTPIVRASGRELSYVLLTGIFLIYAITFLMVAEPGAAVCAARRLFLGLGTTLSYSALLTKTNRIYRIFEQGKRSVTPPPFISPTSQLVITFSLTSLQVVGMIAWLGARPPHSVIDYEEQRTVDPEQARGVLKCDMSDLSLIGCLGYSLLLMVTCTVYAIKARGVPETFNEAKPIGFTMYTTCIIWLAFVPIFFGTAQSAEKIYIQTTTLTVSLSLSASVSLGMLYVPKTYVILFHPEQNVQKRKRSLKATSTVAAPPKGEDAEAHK
- run_description: PDSP functional assay
- applied_conditions: only a functional assay was performed
pKi: −log10 of the molar value.

compound | experimental_system | pKi
O=C(O)c1ccccc1Nc1c(Cl)ccc(OCc2ccccc2)c1Cl [AK3-99B] | mGluR6 (Homo sapiens (Human), UniProt O15303) | < 5.00

* * *

- experimental_system: mGluR2 (Homo sapiens (Human), UniProt Q14416)
- Sequence (Q14416 19-872): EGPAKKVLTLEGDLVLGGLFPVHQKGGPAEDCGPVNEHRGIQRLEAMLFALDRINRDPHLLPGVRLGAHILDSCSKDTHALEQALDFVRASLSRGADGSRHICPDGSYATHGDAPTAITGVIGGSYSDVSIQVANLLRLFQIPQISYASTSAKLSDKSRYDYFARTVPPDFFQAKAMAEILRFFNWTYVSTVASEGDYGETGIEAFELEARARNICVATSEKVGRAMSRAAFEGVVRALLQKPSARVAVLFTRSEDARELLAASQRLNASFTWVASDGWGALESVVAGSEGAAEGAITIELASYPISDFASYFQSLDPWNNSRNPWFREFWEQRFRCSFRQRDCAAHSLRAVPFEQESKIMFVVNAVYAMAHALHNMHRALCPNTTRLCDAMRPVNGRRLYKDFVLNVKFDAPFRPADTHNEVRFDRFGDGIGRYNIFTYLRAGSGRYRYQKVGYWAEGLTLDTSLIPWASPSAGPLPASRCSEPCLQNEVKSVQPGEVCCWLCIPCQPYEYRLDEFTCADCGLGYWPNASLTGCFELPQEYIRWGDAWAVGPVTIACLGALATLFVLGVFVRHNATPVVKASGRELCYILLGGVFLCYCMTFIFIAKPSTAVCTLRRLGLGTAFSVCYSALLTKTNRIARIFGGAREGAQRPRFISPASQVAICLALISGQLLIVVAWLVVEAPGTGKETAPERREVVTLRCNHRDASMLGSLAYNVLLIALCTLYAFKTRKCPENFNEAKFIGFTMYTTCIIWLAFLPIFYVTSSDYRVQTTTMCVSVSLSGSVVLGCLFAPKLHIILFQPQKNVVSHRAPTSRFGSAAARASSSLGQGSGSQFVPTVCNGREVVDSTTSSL
- run_description: PDSP functional assay
- applied_conditions: only a functional assay was performed
pKi: −log10 of the molar value.

compound | pKi
O=C(O)c1ccccc1Nc1c(Cl)ccc(OCc2ccccc2)c1Cl [AK3-99B] | < 5.00

* * *

- experimental_system: mGluR4 (Homo sapiens (Human), UniProt Q14833)
- Sequence (Q14833 33-912): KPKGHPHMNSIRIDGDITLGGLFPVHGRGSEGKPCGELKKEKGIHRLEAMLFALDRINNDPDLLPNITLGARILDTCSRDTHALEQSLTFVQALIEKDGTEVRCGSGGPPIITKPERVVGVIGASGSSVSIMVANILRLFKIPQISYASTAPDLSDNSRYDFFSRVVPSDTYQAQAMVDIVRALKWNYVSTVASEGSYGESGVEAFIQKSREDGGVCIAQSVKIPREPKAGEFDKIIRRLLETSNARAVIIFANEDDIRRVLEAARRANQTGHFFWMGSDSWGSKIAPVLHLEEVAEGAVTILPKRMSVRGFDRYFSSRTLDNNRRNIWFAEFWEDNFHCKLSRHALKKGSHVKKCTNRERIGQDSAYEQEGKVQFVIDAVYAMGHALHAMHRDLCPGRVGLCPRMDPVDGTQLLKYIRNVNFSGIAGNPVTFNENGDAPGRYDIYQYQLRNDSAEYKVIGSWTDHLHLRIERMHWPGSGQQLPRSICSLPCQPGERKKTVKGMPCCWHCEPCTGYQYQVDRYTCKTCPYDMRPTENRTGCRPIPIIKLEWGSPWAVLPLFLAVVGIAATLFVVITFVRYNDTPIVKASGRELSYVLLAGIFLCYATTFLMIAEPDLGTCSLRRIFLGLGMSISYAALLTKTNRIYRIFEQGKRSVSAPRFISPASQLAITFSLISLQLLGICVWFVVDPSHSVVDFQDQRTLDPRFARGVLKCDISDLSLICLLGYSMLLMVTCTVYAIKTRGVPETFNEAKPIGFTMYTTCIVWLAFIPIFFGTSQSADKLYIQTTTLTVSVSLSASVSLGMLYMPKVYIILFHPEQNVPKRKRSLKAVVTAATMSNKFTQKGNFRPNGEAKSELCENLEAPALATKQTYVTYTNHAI
- run_description: PDSP functional assay
- applied_conditions: only a functional assay was performed

compound | Ki
O=C(O)c1ccccc1Nc1c(Cl)ccc(OCc2ccccc2)c1Cl [AK3-99B] | > 10 µM

* * *

- experimental_system: CLC-2 (Homo sapiens (Human), UniProt P51788)
- Sequence (P51788 whole entry): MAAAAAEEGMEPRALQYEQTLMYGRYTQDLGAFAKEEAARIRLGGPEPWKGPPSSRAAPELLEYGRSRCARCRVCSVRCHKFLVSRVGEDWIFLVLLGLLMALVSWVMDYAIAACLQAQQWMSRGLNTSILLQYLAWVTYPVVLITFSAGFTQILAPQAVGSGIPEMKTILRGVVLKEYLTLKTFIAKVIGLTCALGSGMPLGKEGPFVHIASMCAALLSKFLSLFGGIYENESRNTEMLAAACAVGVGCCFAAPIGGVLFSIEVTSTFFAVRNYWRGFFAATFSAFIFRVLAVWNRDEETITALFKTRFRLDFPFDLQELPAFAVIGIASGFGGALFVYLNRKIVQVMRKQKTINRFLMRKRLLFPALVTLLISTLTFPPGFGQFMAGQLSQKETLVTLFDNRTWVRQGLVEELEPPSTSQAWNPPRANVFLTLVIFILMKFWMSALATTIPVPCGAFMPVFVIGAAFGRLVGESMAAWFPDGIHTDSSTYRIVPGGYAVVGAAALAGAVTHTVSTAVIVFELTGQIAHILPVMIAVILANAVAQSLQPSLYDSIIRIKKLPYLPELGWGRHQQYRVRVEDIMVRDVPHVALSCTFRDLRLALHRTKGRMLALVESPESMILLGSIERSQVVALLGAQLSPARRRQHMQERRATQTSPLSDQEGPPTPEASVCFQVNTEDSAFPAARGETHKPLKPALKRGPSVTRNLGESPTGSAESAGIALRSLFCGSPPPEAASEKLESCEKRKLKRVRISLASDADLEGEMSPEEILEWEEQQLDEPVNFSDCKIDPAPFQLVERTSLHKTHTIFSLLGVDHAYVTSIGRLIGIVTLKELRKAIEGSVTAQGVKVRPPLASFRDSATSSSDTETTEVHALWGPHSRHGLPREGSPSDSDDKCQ
- run_description: IonWorks Barracuda automated patch-clamp electrophysiology, human CLC-2 cell line
- Format: cell-based
- applied_conditions: Table 2; read-out: IC50 (CLC-2)
pIC50: −log10 of the molar value.
Listed here: items and their measured pIC50.
property_name: pIC50

molecule | property_name | endpoint_value
Cc1ccc(Cl)c(Nc2ncccc2C(=O)O)c1Cl [AK3-108B] | pIC50 | 5.40
O=C(O)c1ccccc1Nc1c(Cl)ccc(OCc2ccccc2)c1Cl [AK3-99B] | pIC50 | 5.77
Cc1ccc(Cl)c(Nc2ccccc2C(=O)O)c1Cl [MCFA, meclofenamate, reference compound] | pIC50 | 5.06

* * *

- experimental_system: CLC-2 (Homo sapiens (Human), UniProt P51788)
- run_description: IonWorks Barracuda automated patch-clamp electrophysiology, human CLC-2 cell line
- Format: cell-based
- applied_conditions: CLC-2; at the concentration listed in the IC50 cell; negative = increase in peak current
property_name: % inhibition at the concentration listed (in parenthesis)

compound | endpoint_value
O=C(O)c1ccccc1Nc1c(F)cccc1F [AK2-214C] | (41%)
NC(=O)c1cccc(COc2ccc(Cl)c(Nc3ccccc3C(=O)O)c2Cl)c1 [AK3-226] | (5%)
Cc1ccc(Cl)c(Nc2ccccc2OS(=O)(=O)O)c1Cl [AK2-262] | (28%)
O=C(O)c1cccnc1Nc1c(Cl)ccc(OCc2ccccc2)c1Cl [AK3-238] | (90%)
NC(=O)c1ccc(COc2ccc(Cl)c(Nc3ccccc3C(=O)O)c2Cl)cc1 [AK3-219] | (15%)
CCOP(=O)(O)c1ccccc1Nc1c(Cl)ccc(C)c1Cl [AK3-119] | (41%)
NC(=O)c1ccccc1COc1ccc(Cl)c(Nc2ccccc2C(=O)O)c1Cl [AK3-225] | (0%)
Cc1ccc(Cl)c(Nc2cccnc2C(=O)O)c1Cl [AK3-107A] | (12%)
O=C(O)c1ccccc1Nc1ccccc1 [DPC, reference compound] | (27%)
O=C(O)c1cccc2c1[nH]c1c(Cl)ccc(OCc3ccccc3)c12 [AK3-251] | (5%)
Cc1ccc(Cl)c(Nc2cccc(C)c2C(=O)O)c1Cl [AK2-288C] | (37%)
Cc1ccc(Cl)c(Nc2cccc(C(=O)O)c2)c1Cl [AK3-97A] | (36%)
Cc1ccc(Cl)c(Nc2ccccc2P(=O)(O)O)c1Cl [AK3-118] | (6%)
Cc1ccc(Cl)c(Nc2ccncc2C(=O)O)c1Cl [AK3-107B] | (16%)
Cc1ccc(Cl)c(Nc2ccc(C(=O)O)cc2)c1Cl [AK3-97B] | (8%)
Cc1cccc(Nc2ccccc2C(=O)O)c1Cl [AK2-200C] | (43%)
NCCOc1ccc(Cl)c(Nc2ccccc2C(=O)O)c1Cl [AK3-296] | (7%)
O=C(O)c1ccccc1Nc1cc(Cl)ccc1Cl [AK2-209B] | (23%)
O=C(O)c1ccccc1Nc1ccc(Cl)c(Cl)c1 [AK2-200B] | (12%)
O=C(O)c1ccc(COc2ccc(Cl)c(Nc3ccccc3C(=O)O)c2Cl)cc1 [AK3-224] | (4%)
O=C(O)c1cccnc1Nc1cccc(C(F)(F)F)c1 [NFA, reference compound] | (0%)
O=C(O)c1ccccc1Nc1c(Cl)cc(Cl)cc1Cl [AK2-214B] | (22%)
O=C(O)c1ccccc1Nc1ccc(Cl)cc1Cl [AK2-200A] | (13%)
Cc1ccc(Cl)c(Nc2ccccc2C(=O)O)c1 [AK2-214A] | (48%)

Reference source: patent US11173137B2
